- System: MS2 coat protein
- Test method notes: apparent KD of MS2 coat protein; designed switch direction (-1 OFF switch, 1 ON switch): -1; higher = weaker reporter binding
- Condition summary: input ligand: none
Record form. Attribute: apparent KD of MS2 coat protein. Fill in for each entry.
// units = nM; emit number, no label

q: Return reported apparent KD of MS2 coat protein; argument: GCCUUAUCCGUCAGGAUAUACAGCCGCUCGUUGUUGUAGAAGGGACAUGAGGAUCACCCAUGUACGUACCAUUG [alecazam4] (Eterna round: R97, puzzle: Brourd's mod of Exclusion 4)
a: 22.7

q: Give the measured apparent KD of MS2 coat protein of CAGUACCUAGGAUAUACACGGCCACGUGAUACCAAGGAGCAACUUGAGGAUCACCCAAGUAGAAGGAGGUACUG [jl-ex2.4.42 ViennaUCT mod] (Eterna round: R97, puzzle: Exclusion 2) .
a: 198

q: Dear colleague, I am looking for the recorded apparent KD of MS2 coat protein of the following sequence: GCACAGACAGGAUAUACAUGAGGAUCACCCAUGUGACCCUUAUAGUACUCGCGUACAAGUAGAAGGGUCUGUGC [Omei Ex3 Model Bachelor's Dilema v32] (Eterna round: R97, puzzle: Exclusion 3)
a: 832

q: What value of apparent KD of MS2 coat protein has been recorded for this entry: UUUCUUGGGCAAGGAUAUCCUGUGCGGUUCCGGCUCGUGUCUGUCACAUGAGGAUCACCCAUGUGGGAGAAGGUGCCUGCGGUU [Design 83] (Eterna round: R96, puzzle: Exclusion NG 2)
a: 15.6

q: Quick check: apparent KD of MS2 coat protein of UGGUAGUUAGGAUAUACAUGAGGAUCACCCAUGUACGGGUGCAGAAAAGAAAGCCUUCGUAGAAGGAACACCUG [Aaredima] (Eterna round: R97, puzzle: Exclusion 3) ?
a: 62.6

q: # input sequence: AAUAACAAGCAGAUCCUAAACAUGAGGAUCACCCAUGUGCGCGUCUUGUAAAGUACUAUCACGAAAGUGAUAGUACA (Eterna round: R97, puzzle: Sensor, turn-off variant 1) ; wanted: its apparent KD of MS2 coat protein
a: 133

q: Name the recorded apparent KD of MS2 coat protein for AAUAAUCGGGCCUUCCUAUUACAUGAGGAUCACCCAUGUCUCGAGGAUAUACCGACGCACGGUCCGUAGAAGGCGAGACCACAC [Esusbied] (Eterna round: R96, puzzle: Exclusion NG 3) .
a: 24.7

q: Fill in: apparent KD of MS2 coat protein of GGACUGAAGCUAGGAUAUCCCGUGUGAUCACGAGGAGAAGGAGCGCACGGGUAGUCAACAUGAGGAUCACCCAUGUACAGUCCA [Laditiqu] (Eterna round: R96, puzzle: Exclusion NG 1) is ___
a: 20.6

q: Which measured apparent KD of MS2 coat protein value corresponds to UUUAUGUCAGGAUAUACAUGAGGAUCACCCAUGUAUACCUUAAGGUAUACAUGGGAAUGUAGAAGGGACCUCCU [Omei Ex3 Pseudoloop 8] (Eterna round: R97, puzzle: Exclusion 3) ?
a: 46.7

q: For the sequence shown here, CCAAGCUUAUUCAUUAACCACAUGAGGAUCACCCAUGUCUAGGCAAUUAUGACUUGCCCAUCUGGUGCUCGUCUUAU [Sensor-V1 #32] (Eterna round: R97, puzzle: Sensor, turn-off variant 1) , give the reported apparent KD of MS2 coat protein.
a: 32.7
